Assay Target: CB1 receptor (Homo sapiens)
Construct: expressed in transfected cells
Sequence (P21554 whole entry): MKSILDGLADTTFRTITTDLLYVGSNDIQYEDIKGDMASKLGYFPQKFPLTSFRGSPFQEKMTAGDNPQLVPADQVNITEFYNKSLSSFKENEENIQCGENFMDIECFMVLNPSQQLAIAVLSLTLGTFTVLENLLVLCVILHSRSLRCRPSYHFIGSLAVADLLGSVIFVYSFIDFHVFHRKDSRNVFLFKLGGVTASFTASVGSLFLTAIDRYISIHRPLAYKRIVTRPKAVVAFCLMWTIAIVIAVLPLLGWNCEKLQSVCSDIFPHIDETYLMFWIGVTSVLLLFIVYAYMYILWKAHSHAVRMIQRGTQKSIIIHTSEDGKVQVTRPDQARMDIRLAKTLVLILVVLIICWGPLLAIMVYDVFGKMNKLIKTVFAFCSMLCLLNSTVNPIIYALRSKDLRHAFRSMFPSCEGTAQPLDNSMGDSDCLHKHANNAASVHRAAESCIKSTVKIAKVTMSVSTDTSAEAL
Test Method Notes: cell-based
Reported Conditions: CB1 Receptor Functional Inverse Agonist EC50, forskolin induced β-galactosidase activity, SK-N-MC cells
Measured pEC50, listed per entry for reference.
Schema: pEC50 number; meaning minus log10 of the concentration expressed in molar units.

CCOC(=O)[C@H]1C2C=CC(C2)[C@H]1NC(=O)c1nn(-c2ccc(Cl)cc2Cl)c2c1CCCCC2Cc1cccc(F)c1 (stereo partly shown)    6.30
O=S(=O)(/C=C/c1nn(-c2ccc(F)cc2F)c2c1CCCCC2Cc1ccc(F)cc1)NN1CCCCC1 (stereo not shown)    7.22
COc1ccc(/C=C2\CCCCc3c(C(=O)NN4CC5CCCC5C4)nn(-c4ccc(Cl)cc4Cl)c32)cc1 (stereo not shown)    8.52
CC[C@@H](NC(=O)c1nn(-c2ccc(Cl)cc2Cl)c2c1CCCC/C2=C\c1ccc(F)cc1)c1ccccc1    8.05
O=C(N[C@H]1c2ccccc2C[C@H]1O)c1nn(-c2ccc(Cl)cc2Cl)c2c1CCCC/C2=C\c1ccc(F)cc1    8.00

Requested field: pEC50. Item: C[C@@H](NC(=O)c1nn(-c2ccc(Cl)cc2Cl)c2c1CCCC/C2=C\c1ccc(F)cc1)C1CCCCC1
7.52

And for COC(=O)[C@@H](Cc1ccc(F)cc1)NC(=O)c1nn(-c2ccc(Cl)cc2Cl)c2c1CCCC[C@@H]2Cc1cccc(F)c1 ?
7.00

----------
Assay Target: CB2 receptor (Homo sapiens, UniProt P34972)
Construct: expressed in transfected cells
Sequence (P34972 whole entry): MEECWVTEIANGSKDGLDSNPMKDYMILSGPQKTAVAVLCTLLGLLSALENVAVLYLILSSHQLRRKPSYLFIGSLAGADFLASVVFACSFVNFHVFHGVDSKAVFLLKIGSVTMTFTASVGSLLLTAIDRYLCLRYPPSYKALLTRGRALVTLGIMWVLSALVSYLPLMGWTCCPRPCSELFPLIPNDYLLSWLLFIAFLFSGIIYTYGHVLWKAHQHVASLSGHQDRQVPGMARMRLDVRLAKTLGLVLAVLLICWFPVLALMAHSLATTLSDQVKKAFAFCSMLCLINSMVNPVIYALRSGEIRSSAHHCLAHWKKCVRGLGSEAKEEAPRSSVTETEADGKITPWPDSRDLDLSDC
Test Method Notes: Binding assay for CB2 agonists or inverse agonists (SK-N-MC membranes, [3H]-CP-55,940)
Reported Conditions: Cannabinoid CB2 Receptor Binding IC50, calculated by linear regression from percent inhibition at various test concentrations
Measured Quantity: pIC50
To interpret pIC50, take it as minus log10 of a concentration measured in moles per litre.

Some solved entries appear below for comparison.
Cc1ccc(CC2CCCCc3c(C(=O)NC4C5(C)CCC(C5)C4(C)C)nn(-c4ccc(F)cc4)c32)cc1 (stereo not shown) [Cpd 1]    6.52
Cn1nc(C(=O)N[C@@H](CO)c2ccccc2)c2c1/C(=C/c1cccc(F)c1)CCCC2 [Cpd 242]    7.00
O=C(N[C@H](CO)c1ccccc1)c1n[nH]c2c1CCCCC2Cc1cccc(Cl)c1 (single isomer, unassigned) [Cpd 230]    7.40

Suppose we examine the compound COC(=O)[C@@H](Cc1ccc(F)cc1)NC(=O)c1n[nH]c2c1CCCC/C2=C\c1cccc(Cl)c1 [Cpd 245] ; what pIC50 value has been reported?
8.70

Same question for O=C(N[C@@H](CO)c1ccccc1)c1n[nH]c2c1CCCC/C2=C\c1ccc(Cl)cc1 [Cpd 234] please.
7.22

Also, C[C@H](NS(=O)(=O)/C=C/c1n[nH]c2c1CCCCC2Cc1cccc(F)c1)c1ccccc1 (single isomer, unassigned) [Cpd 232] please.
7.22

Note, next up: COC(=O)[C@H](Cc1ccc(F)cc1)NC(=O)c1nn(C)c2c1CCCC/C2=C\c1cccc(F)c1 [Cpd 241]
7.00

Can you handle O=C(N[C@@H](CO)c1ccccc1)c1n[nH]c2c1CCCC/C2=C\c1cccc(Cl)c1 [Cpd 239] next?
7.70

----------
Assay Target: CB1 receptor (Homo sapiens)
Construct: expressed in transfected cells
Test Method Notes: Binding assay for CB1 agonists or inverse agonists (SK-N-MC membranes, [3H]-CP-55,940)
Reported Conditions: read-out: CB1 receptor binding percent inhibition
Measured Quantity: inhibition at 1 µM (%)
Give the quantity in %, number only.

O=C(N[C@@H](CO)c1ccccc1)c1nn(C2CCCCC2)c2c1CCCCC2Cc1cccc(F)c1 (some centres unmarked)    50

Requested read-out: inhibition at 1 µM. Entry: CCOC(=O)[C@@H]1C2CCC(C2)[C@@H]1NC(=O)c1nn(-c2ccc(F)cc2F)c2c1CCCCC2Cc1ccc(F)cc1 (some centres unmarked)
63

Next up: O=S(=O)(/C=C/c1nn(-c2ccc(F)cc2F)c2c1CCCCC2Cc1cccc(F)c1)NN1CCCCC1 (centres unmarked)
47

# repeat for CC12CCC(C1)C(C)(C)[C@H]2NC(=O)c1nn(C2CCCCC2)c2c1CCCCC2Cc1cccc(F)c1 (some centres unmarked)
82

Subsequent entry: O=C(c1nn(-c2ccc(F)cc2F)c2c1CCCCC2Cc1cccc(F)c1)N1CCOCC1 (centres unmarked)
4

----------
Assay Target: CB2 receptor (Homo sapiens)
Construct: expressed in transfected cells
Test Method Notes: Binding assay for CB2 agonists or inverse agonists (SK-N-MC membranes, [3H]-CP-55,940)
Reported Conditions: test concentration not stated
Measured Quantity: CB2 receptor binding percent inhibition (%)
API: value field is a number in %; no unit string.

Solved entries:
C[C@H](NC(=O)c1nn(C2CCCCC2)c2c1CCCCC2Cc1cccc(F)c1)c1ccccc1 (some centres unmarked) [Cpd 45]    42
O=C(NN1CCOCC1)c1nn(-c2ccc(Cl)cc2Cl)c2c1CCCCC2Cc1cccc(F)c1 (centres unmarked) [Cpd 91]    0
O=C(NN1CCOCC1)c1nn(-c2ccc(F)cc2F)c2c1CCCCC2Cc1cccc(F)c1 (centres unmarked) [Cpd 116]    24
C[C@@H](NC(=O)c1nn(-c2ccc(Cl)cc2Cl)c2c1CCCC/C2=C\c1ccc(F)cc1)c1ccccc1 [Cpd 146]    3
O=C(NC1CCC1)c1nn(C2CCCCC2)c2c1CCCCC2Cc1ccccc1Cl (centres unmarked) [Cpd 23]    24
O=C(NC1CCC1)c1nn(-c2ccc(Cl)cc2Cl)c2c1CCCCC2Cc1cccc(F)c1 (centres unmarked) [Cpd 41]    46
O=C(NC12CC3CC(CC(C3)C1)C2)c1nn(C2CCCCC2)c2c1CCCCC2Cc1ccccc1Cl (centres unmarked) [Cpd 21]    26

Attention now turns to another entry.
So what does the record say about CB2 receptor binding percent inhibition for COC(=O)[C@@H](Cc1ccc(O)cc1)NC(=O)c1nn(-c2ccc(Cl)cc2Cl)c2c1CCCCC2Cc1ccc(F)cc1 (some centres unmarked) [Cpd 81] ?
28

----------
Listed next: entries and their corresponding CB2 receptor binding percent inhibition.
Assay Target: CB2 receptor (Homo sapiens, UniProt P34972)
Construct: expressed in transfected cells
Test Method Notes: Binding assay for CB2 agonists or inverse agonists (SK-N-MC membranes, [3H]-CP-55,940)
Reported Conditions: test concentration not stated
Numbers only; they are read as %.

Before answering, review these 3 worked examples.
O=S(=O)(/C=C/c1nn(-c2ccc(F)cc2F)c2c1CCCCC2Cc1ccc(F)cc1)NN1CCCCC1 (centres unmarked) [Cpd 122]    0
O=C(NN1CCCCC1)c1nn(-c2ccc(Cl)cc2Cl)c2c1CCCCC2Cc1cccc(F)c1 (centres unmarked) [Cpd 84]    11
O=C(c1nn(C2CCCCC2)c2c1CCCCC2Cc1cccc(F)c1)N1CCN(c2ccccc2)CC1 (centres unmarked) [Cpd 54]    41

Query (molecule): O=S(=O)(/C=C/c1nn(-c2ccc(F)cc2F)c2c1CCCCC2Cc1cccc(F)c1)NN1CCCCC1 (centres unmarked) [Cpd 123] ; field requested: CB2 receptor binding percent inhibition
14

For O=C(NC12CC3CC(CC(C3)C1)C2)c1nn(-c2ccc(Cl)cc2Cl)c2c1CCCCC2Cc1cccc(Cl)c1 (centres unmarked) [Cpd 22] then?
25

----------
Assay Target: CB2 receptor (Homo sapiens, UniProt P34972)
Construct: expressed in transfected cells
Test Method Notes: Modified binding assay, CB2 receptor in CHO cells, [3H]WIN 55212
Reported Conditions: [3H]WIN 55212 0.8 nM, 120 minutes at 37° C.
Measured Quantity: pIC50
On this scale, pIC50 is minus log10 of a concentration expressed in M (mol/L).

O=C(N[C@H](CO)c1ccccc1)c1n[nH]c2c1CCCCC2Cc1cccc(Cl)c1 (stereo partly shown) [Cpd 164]    6.64
C[C@H](NS(=O)(=O)/C=C/c1n[nH]c2c1CCCC/C2=C\c1ccc(Cl)cc1)c1ccccc1    6.16
O=C(N[C@H](CO)c1ccccc1)c1n[nH]c2c1CCCCC2Cc1cccc(Cl)c1 (single isomer, unassigned) [Cpd 230]    7.04

Alright, here's another molecule for you.
Param item = O=C(N[C@H](CO)c1ccccc1)c1n[nH]c2c1CCCCC2Cc1cccc(Cl)c1 (single isomer, unassigned) [Cpd 231] ; retrieve measured pIC50.
5.74

----------
Assay Target: CB2 receptor (Homo sapiens, UniProt P34972)
Construct: expressed in transfected cells
Test Method Notes: Binding assay for CB2 agonists or inverse agonists (SK-N-MC membranes, [3H]-CP-55,940)
Reported Conditions: test concentration not stated
Description: The human CB1 and CB2 receptors were stably expressed in SK-N-MC cells transfected with pcDNA3 CB-1 (human) or pcDNA3 CB-2 (human). […] On the day of the assay, the pellet was thawed on ice and diluted in assay buffer (50 mM Tris-HCl, 5 mM MgCl2, 2.5 mM EDTA, 0.5 mg/mL fatty acid free bovine serum aldumin, pH 7.5). […] The Unifilter plate was dried, a scintillation cocktail was added to each well and the counts representing binding were quantitated in a TopCount scintillation counter. […]
Measured Quantity: CB2 receptor binding percent inhibition (%)
Number only, in %; omit the unit.

Study these solved cases before continuing.
O=C(NC1CCC1)c1nn(Cc2ccc(Cl)cc2)c2c1CCCCC2Cc1cccc(Cl)c1 (stereo not shown)    18
O=C(NC1CC1)c1nn(C2CCCCC2)c2c1CCCCC2Cc1ccc(F)cc1 (stereo not shown)    42
O=C(NN1CCCCC1)c1nn(C2CCCCC2)c2c1CCCCC2Cc1ccc(F)cc1 (stereo not shown)    5
C[C@@H](NC(=O)c1nn(C2CCCCC2)c2c1CCCCC2Cc1cccc(Cl)c1)c1ccccc1 (stereo partly shown)    5
C[C@H](NC(=O)c1nn(-c2ccc(Cl)cc2Cl)c2c1CCCCC2Cc1ccc(Cl)cc1)c1ccccc1 (stereo partly shown)    38
COC(=O)[C@@H](Cc1ccc(O)cc1)NC(=O)c1nn(-c2ccc(F)cc2F)c2c1CCCCC2Cc1cccc(F)c1 (stereo partly shown)    35
CC12CCC(C1)C(C)(C)[C@H]2NC(=O)c1nn(-c2ccc(Cl)cc2Cl)c2c1CCCCC2Cc1cccc(Cl)c1 (stereo partly shown)    54
O=C(NC1CCC1)c1nn(-c2ccc(Cl)cc2Cl)c2c1CCCCC2Cc1ccc(F)cc1 (stereo not shown)    3
O=C(N[C@@H](CO)c1ccccc1)c1nn(C2CCCCC2)c2c1CCCC[C@@H]2Cc1ccc(F)cc1    33
O=C(NC1CC1)c1nn(C2CCCCC2)c2c1CCCCC2Cc1cccc(Cl)c1 (stereo not shown)    0

CB2 receptor binding percent inhibition lookup needed for O=C(NC1CCCCC1)c1nn(C2CCCCC2)c2c1CCCCC2Cc1cccc(F)c1 (stereo not shown) , thanks.
30

Item: COC(=O)[C@H](Cc1ccc(F)cc1)NC(=O)c1nn(-c2ccc(Cl)cc2Cl)c2c1CCCCC2Cc1ccc(F)cc1 (stereo partly shown)
10

# repeat for O=C(c1nn(C2CCCCC2)c2c1CCCCC2Cc1ccc(F)cc1)N1CCN(c2ccccc2)CC1 (stereo not shown)
38

Can you check O=C(NCc1ccc(C(F)(F)F)cc1)c1nn(-c2ccc(Cl)cc2Cl)c2c1CCCCC2Cc1ccc(Cl)cc1 (stereo not shown) next?
29

Ok, now O=C(NC1CC1)c1nn(C2CCCCC2)c2c1CCCCC2Cc1ccccc1Cl (stereo not shown)
35

What would you report for O=C(N[C@@H]1c2ccccc2C[C@@H]1O)c1nn(-c2ccc(Cl)cc2Cl)c2c1CCCCC2Cc1cccc(Cl)c1 (single isomer, unassigned) [Cpd 113] ?
28
